- Test system: Plasmodium falciparum
- experimentNotes: Antimalarial activity against Plasmodium falciparum W2
- Type: functional, organism-based
measure: IC50 (µM)

a = N=C(N)c1ccc(NC(=O)Nc2ccc(Oc3ccccc3)cc2)cc1
b = CCCCNC(=O)C[C@H](O)[C@H](CC(C)C)NC(=O)[C@@H](NC(=O)OC1=C([C@H]2CC[C@H](c3ccc(Cl)cc3)CC2)C(=O)c2ccccc2C1=O)[C@@H](C)CC
Prompt: // compare measured IC50, left a , right b , return larger Identify your selection by its label.
Response: a

###

- assayTarget: Plasmepsin 4 (Plasmodium falciparum, UniProt Q17SB2)
- Sequence (Q17SB2 whole entry): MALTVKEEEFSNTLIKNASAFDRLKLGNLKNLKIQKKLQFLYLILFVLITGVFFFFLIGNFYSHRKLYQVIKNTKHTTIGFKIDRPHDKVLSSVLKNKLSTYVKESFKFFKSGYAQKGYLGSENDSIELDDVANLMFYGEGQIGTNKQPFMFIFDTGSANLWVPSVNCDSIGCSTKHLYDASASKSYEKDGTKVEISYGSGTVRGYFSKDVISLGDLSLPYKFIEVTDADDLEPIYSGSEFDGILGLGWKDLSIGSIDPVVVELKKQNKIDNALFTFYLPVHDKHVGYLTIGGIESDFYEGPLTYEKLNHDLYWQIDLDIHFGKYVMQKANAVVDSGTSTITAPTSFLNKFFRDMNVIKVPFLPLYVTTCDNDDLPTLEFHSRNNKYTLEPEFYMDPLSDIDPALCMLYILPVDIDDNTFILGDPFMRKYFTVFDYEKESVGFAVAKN
- experimentNotes: Inhibition of recombinant Plasmodium falciparum Plasmepsin 4
measure: pIC50
The read-out pIC50 is expressed as -log10 of concentration in moles per litre.

Answered cases to consult:
compound="c1ccc2cc(COC3C4CCC(N4)C3Oc3ccc(OCCSc4nc5ccccc5s4)cc3)ccc2c1 (stereo not given)" measure=pIC50 endpointvalue=4.41
compound="O=C(Cc1ccccc1)N(Cc1ccccc1)C1CNCC1N(Cc1ccccc1)C(=O)Cc1ccccc1 (stereo not given)" measure=pIC50 endpointvalue=5.60
compound=CCCCCc1ccc(C(=O)N(Cc2ccc(NC(=O)c3cc4ccccc4s3)cc2)C2CCN(CCC(C)C)CC2)cc1 measure=pIC50 endpointvalue=6.60
compound=CCCCCc1ccc(N(C[C@@H]2CCC(=O)C(F)(F)C2)C(=O)Cc2ccc3ccccc3c2)cc1 measure=pIC50 endpointvalue=4.24

With those in mind, consider the next compound.
Prompt: Give its pIC50 value. Item: CCCCCc1ccc(S(=O)(=O)C2C3NC(CC3CNC3CCCC3)C2NCc2ccc3ccccc3c2)cc1 (stereo not given)
Response: 7.96
